The measured values listed here are drawn from ChEMBL document CHEMBL1139181.

Target: Metabotropic glutamate receptor 5 (Rattus norvegicus) (UniProt P31424)
Sequence (P31424 21-1203 limits assumed): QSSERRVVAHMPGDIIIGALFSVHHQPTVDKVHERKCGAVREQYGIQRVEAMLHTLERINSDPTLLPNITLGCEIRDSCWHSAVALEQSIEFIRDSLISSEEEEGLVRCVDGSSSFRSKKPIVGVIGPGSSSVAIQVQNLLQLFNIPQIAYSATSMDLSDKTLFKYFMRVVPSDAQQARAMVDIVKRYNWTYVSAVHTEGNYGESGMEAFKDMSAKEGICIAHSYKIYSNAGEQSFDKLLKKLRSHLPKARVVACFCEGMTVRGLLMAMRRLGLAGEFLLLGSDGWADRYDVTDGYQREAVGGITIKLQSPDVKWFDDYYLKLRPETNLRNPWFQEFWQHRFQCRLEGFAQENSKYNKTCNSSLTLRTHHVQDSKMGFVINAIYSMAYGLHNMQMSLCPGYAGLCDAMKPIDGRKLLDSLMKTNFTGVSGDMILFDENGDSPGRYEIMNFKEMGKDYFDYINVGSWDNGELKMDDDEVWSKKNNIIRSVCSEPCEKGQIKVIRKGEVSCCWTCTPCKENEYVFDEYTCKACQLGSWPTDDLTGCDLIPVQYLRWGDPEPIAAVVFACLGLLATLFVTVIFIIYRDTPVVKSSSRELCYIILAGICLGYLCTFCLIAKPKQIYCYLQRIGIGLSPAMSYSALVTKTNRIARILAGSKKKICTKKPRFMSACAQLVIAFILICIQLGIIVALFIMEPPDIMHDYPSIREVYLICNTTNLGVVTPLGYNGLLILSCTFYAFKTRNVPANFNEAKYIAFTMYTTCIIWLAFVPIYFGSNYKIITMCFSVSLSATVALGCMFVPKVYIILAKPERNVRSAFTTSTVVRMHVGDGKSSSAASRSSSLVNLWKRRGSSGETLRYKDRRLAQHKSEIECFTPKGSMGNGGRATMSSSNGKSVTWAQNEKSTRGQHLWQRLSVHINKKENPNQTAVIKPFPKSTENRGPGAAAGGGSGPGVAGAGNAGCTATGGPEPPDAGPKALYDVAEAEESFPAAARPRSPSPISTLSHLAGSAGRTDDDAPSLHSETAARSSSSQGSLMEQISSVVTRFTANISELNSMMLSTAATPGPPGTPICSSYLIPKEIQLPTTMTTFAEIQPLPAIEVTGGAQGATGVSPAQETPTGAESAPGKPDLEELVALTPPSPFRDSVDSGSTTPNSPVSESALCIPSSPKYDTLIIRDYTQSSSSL
Assay: Displacement of [3H]MPEP from mGluR5 in rat brain membrane at 10 uM
Assay type: cell membranes
Answer NOT MET if Activity is under 30%, and MET if it is 30% or more.

smiles	test system	group
Cc1cccc(NC(=O)c2cc3ccccc3s2)n1	Metabotropic glutamate receptor 5 (Rattus norvegicus) (UniProt P31424)	NOT MET

Query: Does the reported Activity for Cc1cccc(NC(=O)c2ccc(-c3cccc(C#N)c3)cn2)n1 fall at or above the 30% mark?
Result: NOT MET

Query: And what about the compound Cc1cccc(NC(=O)c2cc3ccccc3[nH]2)n1 ?
Result: NOT MET

====

Target: Metabotropic glutamate receptor 5 (Rattus norvegicus) (UniProt P31424)
Assay: Displacement of [3H]MPEP from mGluR5 in rat brain membrane at 10 uM
Type: cell membranes
Mark Not met for Activity values under 30%, and Met for everything at or above.

Field: example entries. Status: answers known.
smiles	group
Cc1cccc(NC(=O)c2cc(-c3ccc4ccccc4c3)ccn2)n1	Met
COc1ccccc1-c1ccnc(C(=O)Nc2cccc(C)n2)c1	Met

Query: Can Cc1cccc(NC(=O)c2cc3ccccc3o2)n1 be said to have Activity at or above 30%?
Result: Met

Query: Follow-up item: Cc1cccc(NC(=O)c2cc3ccccc3n2C)n1
Result: Not met

Query: Repeat with Cc1cccc(NC(=O)c2csc(-c3ccccc3)n2)n1
Result: Not met

====

Target: Metabotropic glutamate receptor 5 (Rattus norvegicus)
Test: Displacement of [3H]MPEP from mGluR5 in rat brain membrane at 10 uM
Assay type: cell membranes
List of Activity values.
Report the figure in % without appending any unit label.

Field: example entries. Status: answers known.
smiles	measurement units	value measured
Cc1cccc(NC(=O)c2ccc(-c3cccs3)cn2)n1	%	40
Cc1cccc(NC(=O)c2cc(Cl)ccn2)n1	%	28

# context switch: different molecule, same Activity
Query: Give the measured Activity of COc1cccc(-c2ccnc(C(=O)Nc3cccc(C)n3)c2)c1 .
Result: 13
